This listing pairs binders with measured SPOT peptide array binding signal intensity.
targetDesc: AgNbp2
assayName: SPOT peptide array binding signal intensity (averaged, normalized) (arbitrary units (background-subtracted, floor 0; scale differs between SH3 domains)); higher = stronger binding of the SH3 domain to the peptide

Consider the following illustrative entries.
>>> result("QTMRQAPKRPDADVA")
2740
>>> result("DTIDNVKSKIQDKEG")
"≤ 0"
>>> result("FLIKFTPKFPQSIDH")
669

In the following, a different binder is considered.
Query block: # query: SPOT peptide array binding signal intensity of entry DRIRMFIRFPKFLLE
Result block: 278

These data points were gathered from the supplement of paper PMC4466140.
